From: ChEMBL document CHEMBL1781986

assay.system: Small conductance calcium-activated potassium channel protein 1 (Homo sapiens)
assay: Inhibition of human recombinant Skca channel at 10 uM by radioligand binding assay
The source made the active and inactive calls. The rule behind the calls is not given here.
Returns: one label drawn from active, inactive

[[record]]
query_smiles = "Cc1cc(C(N)=O)ccc1-c1c(CCC(=O)O)ccn1-c1ccc(-n2ccnc2)cc1"
assay_system = "Small conductance calcium-activated potassium channel protein 1 (Homo sapiens)"
assigned_class = "inactive"

[[record]]
query_smiles = "Cc1cc(C(N)=O)ccc1-n1c(CCC(=O)O)ccc1-c1ccc(-n2ccnc2)cc1"
assay_system = "Small conductance calcium-activated potassium channel protein 1 (Homo sapiens)"
assigned_class = "inactive"

[[record]]
query_smiles = "COc1ccc(-c2ccn(-c3ccc(O)c([N+](=O)[O-])c3)c2-c2ccc(C(N)=O)cc2C)cc1"
assay_system = "Small conductance calcium-activated potassium channel protein 1 (Homo sapiens)"
assigned_class = "active"


// outcome(item) with item = Cc1cc(C(N)=O)ccc1-c1c(-c2ccc(-n3ccnc3)cc2)ccn1CCC(=O)O inactive

I would be grateful if you could indicate the recorded call for COc1ccc(-c2ccn(-c3ccc(C(=O)O)c(O)c3)c2-c2ccc(C(N)=O)cc2C)cc1 . active

* * *

assay.system: Neuropeptide Y receptor type 2 (Homo sapiens) (UniProt P49146)
Sequence (P49146 whole entry, looked up): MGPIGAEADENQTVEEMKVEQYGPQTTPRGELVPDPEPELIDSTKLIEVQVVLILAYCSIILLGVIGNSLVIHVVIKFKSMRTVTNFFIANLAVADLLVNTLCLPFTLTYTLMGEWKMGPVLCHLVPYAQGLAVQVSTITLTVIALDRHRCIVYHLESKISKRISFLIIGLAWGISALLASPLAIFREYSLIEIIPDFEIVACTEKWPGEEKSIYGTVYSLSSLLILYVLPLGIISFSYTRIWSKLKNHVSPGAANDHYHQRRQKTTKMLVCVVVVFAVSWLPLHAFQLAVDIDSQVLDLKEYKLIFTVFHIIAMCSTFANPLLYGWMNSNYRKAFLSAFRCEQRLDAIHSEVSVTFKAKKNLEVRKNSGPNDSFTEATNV
assay: Inhibition of human recombinant Y2 receptor at 10 uM by radioligand binding assay
The source made the active and inactive calls. The calls are words filed in the database; no cut-off is given here.
Return exactly one item of yes (1) (active), no (0) (inactive)

Please indicate how the test categorized COc1ccc(-c2ccn(-c3ccc(O)c([N+](=O)[O-])c3)c2-c2ccc(C(N)=O)cc2C)cc1 . yes (1)

Given Cc1cc(C(N)=O)ccc1-c1c(-c2ccc(-n3ccnc3)cc2)ccn1CCC(=O)O , state the outcome it received in this test. no (0)

Recorded test outcome, item COc1ccc(-c2ccn(-c3ccc(C(=O)O)c(O)c3)c2-c2ccc(C(N)=O)cc2C)cc1 yes (1)

What did this assay record as the result for Cc1cc(C(N)=O)ccc1-c1c(CCC(=O)O)ccn1-c1ccc(-n2ccnc2)cc1 ? no (0)

Field: outcome | Entry: Cc1cc(C(N)=O)ccc1-n1c(CCC(=O)O)ccc1-c1ccc(-n2ccnc2)cc1 no (0)

* * *

Species on record: Homo sapiens
assay: Inhibition of human recombinant chloride channel at 10 uM by radioligand binding assay
The source made the active and inactive calls. No cut-off for these calls is given here.
test.readout: inhibition

A selection of reference data follows.
[[record]]
query_smiles = "Cc1cc(C(N)=O)ccc1-c1c(CCC(=O)O)ccn1-c1ccc(-n2ccnc2)cc1"
result = "inactive"

[[record]]
query_smiles = "COc1ccc(-c2ccn(-c3ccc(O)c([N+](=O)[O-])c3)c2-c2ccc(C(N)=O)cc2C)cc1"
result = "Active"

[[record]]
query_smiles = "COc1ccc(-c2ccn(-c3ccc(C(=O)O)c(O)c3)c2-c2ccc(C(N)=O)cc2C)cc1"
result = "Active"

[[record]]
query_smiles = "Cc1cc(C(N)=O)ccc1-c1c(-c2ccc(-n3ccnc3)cc2)ccn1CCC(=O)O"
result = "inactive"


Given the entry Cc1cc(C(N)=O)ccc1-n1c(CCC(=O)O)ccc1-c1ccc(-n2ccnc2)cc1 , report its measured inhibition. inactive

* * *

assay.system: Histamine H1 receptor (Homo sapiens)
assay: Inhibition of human recombinant H1 receptor at 10 uM by radioligand binding assay
Activity calls are given as the source filed them. The rule behind the calls is not given here.
Classes to choose from: Yes (active), No (inactive)

Use the examples below as a reference point.
[[record]]
molecule = "Cc1cc(C(N)=O)ccc1-c1c(-c2ccc(-n3ccnc3)cc2)ccn1CCC(=O)O"
assigned_class = "No"

[[record]]
molecule = "Cc1cc(C(N)=O)ccc1-c1c(CCC(=O)O)ccn1-c1ccc(-n2ccnc2)cc1"
assigned_class = "No"


Would you mind telling me which call this test gave COc1ccc(-c2ccn(-c3ccc(C(=O)O)c(O)c3)c2-c2ccc(C(N)=O)cc2C)cc1 ? Yes

Which outcome was assigned to COc1ccc(-c2ccn(-c3ccc(O)c([N+](=O)[O-])c3)c2-c2ccc(C(N)=O)cc2C)cc1 in this test? Yes

Test call for this molecule, please: Cc1cc(C(N)=O)ccc1-n1c(CCC(=O)O)ccc1-c1ccc(-n2ccnc2)cc1 [N6022] No

* * *

Species on record: Homo sapiens
assay: Inhibition of human recombinant sodium channel at 10 uM by radioligand binding assay
Active and inactive are the calls of the source. The calls are words filed in the database; no cut-off is given here.
test.readout: inhibition

[[record]]
molecule = "Cc1cc(C(N)=O)ccc1-c1c(-c2ccc(-n3ccnc3)cc2)ccn1CCC(=O)O"
result = "inactive"

[[record]]
molecule = "COc1ccc(-c2ccn(-c3ccc(O)c([N+](=O)[O-])c3)c2-c2ccc(C(N)=O)cc2C)cc1"
result = "Active"

[[record]]
molecule = "Cc1cc(C(N)=O)ccc1-c1c(CCC(=O)O)ccn1-c1ccc(-n2ccnc2)cc1"
result = "inactive"

[[record]]
molecule = "COc1ccc(-c2ccn(-c3ccc(C(=O)O)c(O)c3)c2-c2ccc(C(N)=O)cc2C)cc1"
result = "Active"


API: the following record is the query input.
Field request: inhibition | item: Cc1cc(C(N)=O)ccc1-n1c(CCC(=O)O)ccc1-c1ccc(-n2ccnc2)cc1 [N6022] inactive

* * *

assay.system: UniProtKB P23975
Sequence (P23975 whole entry): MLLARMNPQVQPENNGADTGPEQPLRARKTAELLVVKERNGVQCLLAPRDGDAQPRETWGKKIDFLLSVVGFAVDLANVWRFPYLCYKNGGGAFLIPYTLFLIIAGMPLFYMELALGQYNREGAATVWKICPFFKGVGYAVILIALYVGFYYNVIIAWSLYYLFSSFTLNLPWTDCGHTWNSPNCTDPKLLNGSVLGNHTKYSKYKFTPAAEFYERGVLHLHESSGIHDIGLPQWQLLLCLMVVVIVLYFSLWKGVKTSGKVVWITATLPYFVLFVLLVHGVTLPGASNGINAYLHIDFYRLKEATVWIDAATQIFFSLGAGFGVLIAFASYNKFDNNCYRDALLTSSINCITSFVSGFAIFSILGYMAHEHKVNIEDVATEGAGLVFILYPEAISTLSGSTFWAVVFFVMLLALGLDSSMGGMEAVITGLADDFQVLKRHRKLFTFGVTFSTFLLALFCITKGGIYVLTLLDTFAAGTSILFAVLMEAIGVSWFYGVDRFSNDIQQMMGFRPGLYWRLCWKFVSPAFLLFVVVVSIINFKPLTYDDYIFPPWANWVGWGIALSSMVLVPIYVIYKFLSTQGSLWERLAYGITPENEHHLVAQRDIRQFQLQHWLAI
assay: Inhibition of human recombinant NET at 10 uM by radioligand binding assay
Active and inactive are the calls of the source. No cut-off for these calls is given here.
test.readout: inhibition

[[record]]
query_smiles = "Cc1cc(C(N)=O)ccc1-c1c(-c2ccc(-n3ccnc3)cc2)ccn1CCC(=O)O"
result = "inactive"

[[record]]
query_smiles = "Cc1cc(C(N)=O)ccc1-c1c(CCC(=O)O)ccn1-c1ccc(-n2ccnc2)cc1"
result = "inactive"

[[record]]
query_smiles = "COc1ccc(-c2ccn(-c3ccc(C(=O)O)c(O)c3)c2-c2ccc(C(N)=O)cc2C)cc1"
result = "Active"

[[record]]
query_smiles = "COc1ccc(-c2ccn(-c3ccc(O)c([N+](=O)[O-])c3)c2-c2ccc(C(N)=O)cc2C)cc1"
result = "Active"


Consider now this further molecule.
Name the reported inhibition value associated with the molecule Cc1cc(C(N)=O)ccc1-n1c(CCC(=O)O)ccc1-c1ccc(-n2ccnc2)cc1 inactive

* * *

assay.system: Cholecystokinin receptor type A (Homo sapiens) (UniProt P32238)
Sequence (P32238 whole entry): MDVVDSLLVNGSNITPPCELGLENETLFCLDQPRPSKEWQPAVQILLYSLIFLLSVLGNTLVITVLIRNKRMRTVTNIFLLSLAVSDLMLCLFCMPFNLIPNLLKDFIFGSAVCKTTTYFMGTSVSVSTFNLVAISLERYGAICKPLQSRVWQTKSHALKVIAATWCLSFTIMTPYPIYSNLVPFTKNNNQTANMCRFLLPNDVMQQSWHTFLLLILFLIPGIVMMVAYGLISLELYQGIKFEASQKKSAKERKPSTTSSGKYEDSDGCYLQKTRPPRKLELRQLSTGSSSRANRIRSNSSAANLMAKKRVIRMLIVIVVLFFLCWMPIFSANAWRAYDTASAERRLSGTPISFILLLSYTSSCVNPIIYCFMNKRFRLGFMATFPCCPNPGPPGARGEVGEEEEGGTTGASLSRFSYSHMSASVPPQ
assay: Inhibition of human recombinant CCK1 receptor at 10 uM by radioligand binding assay
Activity calls are given as the source filed them. The rule behind the calls is not given here.
Thanks in advance; please answer with one of these: TRUE = active, FALSE = inactive

Please review the following examples before continuing.
[[record]]
compound = "Cc1cc(C(N)=O)ccc1-n1c(CCC(=O)O)ccc1-c1ccc(-n2ccnc2)cc1 [N6022]"
assigned_class = "FALSE"

[[record]]
compound = "Cc1cc(C(N)=O)ccc1-c1c(CCC(=O)O)ccn1-c1ccc(-n2ccnc2)cc1"
assigned_class = "FALSE"

[[record]]
compound = "COc1ccc(-c2ccn(-c3ccc(O)c([N+](=O)[O-])c3)c2-c2ccc(C(N)=O)cc2C)cc1"
assigned_class = "TRUE"


What call does the record list for COc1ccc(-c2ccn(-c3ccc(C(=O)O)c(O)c3)c2-c2ccc(C(N)=O)cc2C)cc1 ? TRUE

Tell me the recorded outcome of this test for Cc1cc(C(N)=O)ccc1-c1c(-c2ccc(-n3ccnc3)cc2)ccn1CCC(=O)O . FALSE

* * *

assay.system: Adenosine receptor A2a (Homo sapiens) (UniProt P29274)
Sequence (P29274 whole entry): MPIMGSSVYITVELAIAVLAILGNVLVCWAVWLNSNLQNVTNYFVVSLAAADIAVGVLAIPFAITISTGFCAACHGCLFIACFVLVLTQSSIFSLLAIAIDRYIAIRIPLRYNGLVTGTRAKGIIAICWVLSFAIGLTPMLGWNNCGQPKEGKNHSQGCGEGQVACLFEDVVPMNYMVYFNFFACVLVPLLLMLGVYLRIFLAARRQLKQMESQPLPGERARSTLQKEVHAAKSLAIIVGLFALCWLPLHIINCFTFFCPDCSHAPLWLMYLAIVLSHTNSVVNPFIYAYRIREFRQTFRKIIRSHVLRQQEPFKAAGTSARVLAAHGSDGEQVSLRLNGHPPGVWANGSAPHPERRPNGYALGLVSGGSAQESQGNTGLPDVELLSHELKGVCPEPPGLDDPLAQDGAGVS
assay: Inhibition of human recombinant A2a receptor at 10 uM by radioligand binding assay
Calls of active or inactive are those of the source. The calls are words filed in the database; no cut-off is given here.
// allowed return values: True for active, False for inactive

Before answering, review these 2 worked examples.
[[record]]
query_smiles = "Cc1cc(C(N)=O)ccc1-c1c(-c2ccc(-n3ccnc3)cc2)ccn1CCC(=O)O"
assigned_class = "False"

[[record]]
query_smiles = "COc1ccc(-c2ccn(-c3ccc(O)c([N+](=O)[O-])c3)c2-c2ccc(C(N)=O)cc2C)cc1"
assigned_class = "True"


Answer briefly: the call reported for Cc1cc(C(N)=O)ccc1-n1c(CCC(=O)O)ccc1-c1ccc(-n2ccnc2)cc1 in this assay. False

Hello, I am checking results. What call was entered for Cc1cc(C(N)=O)ccc1-c1c(CCC(=O)O)ccn1-c1ccc(-n2ccnc2)cc1 ? False

// return assay outcome for COc1ccc(-c2ccn(-c3ccc(C(=O)O)c(O)c3)c2-c2ccc(C(N)=O)cc2C)cc1 True

* * *

assay.system: UniProt P11229
Sequence (P11229 whole entry): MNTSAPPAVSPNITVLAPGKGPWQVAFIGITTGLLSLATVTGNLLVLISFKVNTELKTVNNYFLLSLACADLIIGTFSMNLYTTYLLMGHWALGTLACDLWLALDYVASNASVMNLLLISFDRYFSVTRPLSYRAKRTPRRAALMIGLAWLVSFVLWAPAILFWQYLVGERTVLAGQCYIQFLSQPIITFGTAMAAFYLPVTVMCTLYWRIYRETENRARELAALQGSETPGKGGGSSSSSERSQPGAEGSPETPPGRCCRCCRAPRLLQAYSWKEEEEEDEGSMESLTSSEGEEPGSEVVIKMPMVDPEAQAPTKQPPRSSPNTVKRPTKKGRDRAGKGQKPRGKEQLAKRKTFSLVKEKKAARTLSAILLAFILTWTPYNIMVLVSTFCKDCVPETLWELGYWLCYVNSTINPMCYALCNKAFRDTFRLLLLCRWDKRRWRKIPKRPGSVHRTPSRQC
assay: Inhibition of human recombinant M1 receptor at 10 uM by radioligand binding assay
Activity calls are given as the source filed them. No cut-off for these calls is given here.
Respond only with the outcome that fits, drawn from 1 (active), -1 (inactive)

Which outcome was entered for the compound Cc1cc(C(N)=O)ccc1-c1c(CCC(=O)O)ccn1-c1ccc(-n2ccnc2)cc1 in this test? -1

Lab log entry: Cc1cc(C(N)=O)ccc1-n1c(CCC(=O)O)ccc1-c1ccc(-n2ccnc2)cc1 — outcome as called in the assay? -1

* * *

assay.system: UniProt P41146
Sequence (P41146 whole entry): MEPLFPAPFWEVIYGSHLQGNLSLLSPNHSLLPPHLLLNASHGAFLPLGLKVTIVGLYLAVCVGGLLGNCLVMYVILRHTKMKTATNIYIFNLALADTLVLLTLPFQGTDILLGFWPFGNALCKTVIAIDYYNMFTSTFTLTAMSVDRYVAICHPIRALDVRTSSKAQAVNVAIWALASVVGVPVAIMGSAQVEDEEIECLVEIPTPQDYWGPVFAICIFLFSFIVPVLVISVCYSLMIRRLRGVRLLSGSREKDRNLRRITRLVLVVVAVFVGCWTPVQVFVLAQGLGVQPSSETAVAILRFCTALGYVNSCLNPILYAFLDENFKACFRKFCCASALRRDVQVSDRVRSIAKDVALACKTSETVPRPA
assay: Inhibition of human recombinant NOP receptor at 10 uM by radioligand binding assay
The source made the active and inactive calls. The rule behind the calls is not given here.
Reply using exactly one outcome from yes (active), no (inactive)

Completed entries (count: 4):
[[record]]
query_smiles = "COc1ccc(-c2ccn(-c3ccc(O)c([N+](=O)[O-])c3)c2-c2ccc(C(N)=O)cc2C)cc1"
assigned_class = "yes"

[[record]]
query_smiles = "COc1ccc(-c2ccn(-c3ccc(C(=O)O)c(O)c3)c2-c2ccc(C(N)=O)cc2C)cc1"
assigned_class = "yes"

[[record]]
query_smiles = "Cc1cc(C(N)=O)ccc1-c1c(CCC(=O)O)ccn1-c1ccc(-n2ccnc2)cc1"
assigned_class = "no"

[[record]]
query_smiles = "Cc1cc(C(N)=O)ccc1-n1c(CCC(=O)O)ccc1-c1ccc(-n2ccnc2)cc1"
assigned_class = "no"


Next, consider the following compound.
Dear colleague, could you share the recorded outcome for Cc1cc(C(N)=O)ccc1-c1c(-c2ccc(-n3ccnc3)cc2)ccn1CCC(=O)O when you have a moment? no
